All figures here come from patent US20210395310A1.

# ASSAYED_SYSTEM: T1, tcHGF(Xa) (human, UniProt P14210 32-490; P14210 495-728)
# T1 construct: A C-terminal hexahistidine tag was added and the sample was treated with TEV protease; also called mature HGF (Xa)
# T1 sequence (P14210 other isoform, or with tags, fused parts or gaps limits assumed, chain 1 of 2): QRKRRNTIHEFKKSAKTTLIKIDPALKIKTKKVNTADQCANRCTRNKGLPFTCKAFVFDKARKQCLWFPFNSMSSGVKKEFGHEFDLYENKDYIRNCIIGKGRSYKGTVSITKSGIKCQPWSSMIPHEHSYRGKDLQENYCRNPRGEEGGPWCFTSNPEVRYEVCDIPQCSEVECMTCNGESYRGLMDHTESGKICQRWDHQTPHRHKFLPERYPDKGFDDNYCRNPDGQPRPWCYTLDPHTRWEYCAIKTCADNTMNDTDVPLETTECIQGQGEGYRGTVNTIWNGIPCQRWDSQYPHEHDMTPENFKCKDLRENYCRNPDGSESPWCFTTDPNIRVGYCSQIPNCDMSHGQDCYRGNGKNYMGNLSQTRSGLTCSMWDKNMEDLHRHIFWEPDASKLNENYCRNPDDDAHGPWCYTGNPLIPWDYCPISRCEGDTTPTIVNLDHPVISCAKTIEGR
# T1 sequence (P14210 495-728 limits assumed, chain 2 of 2): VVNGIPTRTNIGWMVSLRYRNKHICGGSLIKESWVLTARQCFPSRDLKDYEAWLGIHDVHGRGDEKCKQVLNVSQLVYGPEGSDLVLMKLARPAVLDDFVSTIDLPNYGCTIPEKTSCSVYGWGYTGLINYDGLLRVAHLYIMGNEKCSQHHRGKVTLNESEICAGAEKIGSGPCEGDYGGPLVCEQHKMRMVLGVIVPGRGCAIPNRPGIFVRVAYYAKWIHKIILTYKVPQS
# TEST_SUMMARY: SPR, Biacore 3000, HiP8-PEG11-biotin on streptavidin chip, tcHGF(Xa) injected, steady-state affinity
Positions of bridges follow the written chain, without caps; N, C: chain ends. Non-standard residues stand in square brackets, D forms with d. Primed or numbered codes have the meaning given here. PEG11′ = PEG11 linker (11-unit polyethylene glycol spacer); βAla = NCCC(=O)O
RECORDED_METRIC: Kd (nM)

INSERT INTO results (binder, quantity_unit, reported_value) VALUES
  ('{CH2CO}-[dW]PLSKWWYSKRC-{βAla-PEG11′-K(D-biotin)} (thioether N-12 (inferred), also called immobilized HiP-8-PEG11; HiP-8 (in the staining text)) [HiP-8-PEG11-biotin]', 'nM', 2.5);
